experiment: solvent given as SMILES
test conditions: in ClCCl
Kindly supply the reported absorption maximum values for the records listed here.
Kindly answer with a numeric value in nm, unit omitted.

Ask: Fill in: absorption maximum of `O=c1oc2ccccc2c2c1c(=O)oc1cc(O)c3ccccc3c12` is ___
Result: 442

Ask: Fill in: absorption maximum of `CCCCCCc1ccc2c3c(ccc2c1)O[B-](c1ccccc1)(c1ccccc1)[N+](c1ccc([N+]2=Cc4c(ccc5cc(CCCCCC)ccc45)O[B-]2(c2ccccc2)c2ccccc2)cc1)=C3` is ___
Result: 459

Ask: Fill in: absorption maximum of `CCCCn1c(-c2ccc(-c3nnc(-c4ccc5ccccc5c4)o3)cc2)nc(-c2ccccc2)c1-c1ccccc1` is ___
Result: 340

Ask: Fill in: absorption maximum of `O=C1c2ccccc2C2=Nc3cccc[n+]3[B-](F)(F)N12` is ___
Result: 361

Ask: Fill in: absorption maximum of `COc1ccc2c(c1)c1c(OC)c3ccccc3c(OC)c1n2C` is ___
Result: 425

Just for reference, the Deep4Chem optical property database is where these values come from.
